- Test: Solubility assessment of MH1 in solvents (HPLC of liquors, XRPD of isolated solids)
- Format: physicochemical
- Condition Parameters: organic solvent or mixture, thermodynamic from solid; IPA:Heptane 1:3, 5° C.
Measure Name: solubility at 24 h (µg/mL)
Use µg/mL as the unit, but write only the number.

Consider the molecule `C[C@@H]1CN(Cc2ncccn2)C[C@H]1c1cn2c(C3CCOCC3)ncc2c(=O)[nH]1` . State its measured solubility at 24 h.
8000

----------
- Test: Solubility assessment of MH1 in solvents (HPLC of liquors, XRPD of isolated solids)
- Type: physicochemical
- Condition Parameters: organic solvent or mixture, thermodynamic from solid; THF:Heptane 2:1, 5° C.
Measure Name: solubility at 24 h (mg/mL)
Give the quantity in mg/mL, number only.

In one line, give reported solubility at 24 h of the entry `C[C@@H]1CN(Cc2ncccn2)C[C@H]1c1cn2c(C3CCOCC3)ncc2c(=O)[nH]1` .
17

----------
- Test: Solubility assessment of MH1 in solvents (HPLC of liquors, XRPD of isolated solids)
- Type: physicochemical
- Condition Parameters: organic solvent or mixture, thermodynamic from solid; THF:Heptane 1:2, 5° C.
Measure Name: solubility at 24 h (µg/mL)
Output spec: scalar in µg/mL, unitless text.

Read the entry `C[C@@H]1CN(Cc2ncccn2)C[C@H]1c1cn2c(C3CCOCC3)ncc2c(=O)[nH]1` and write its reported solubility at 24 h.
330

----------
- Test: Solubility assessment of MH1 in solvents (HPLC of liquors, XRPD of isolated solids)
- Type: physicochemical
- Condition Parameters: organic solvent or mixture, thermodynamic from solid; IPA:Heptane 1:3, 50° C.
Measure Name: solubility at 24 h (µg/mL)
Supply the numeric figure in µg/mL, leaving out any unit text.

Specify reported solubility at 24 h for the compound shown: `C[C@@H]1CN(Cc2ncccn2)C[C@H]1c1cn2c(C3CCOCC3)ncc2c(=O)[nH]1`
10000

----------
- Test: Solubility assessment of MH1 in solvents (HPLC of liquors, XRPD of isolated solids)
- Type: physicochemical
- Condition Parameters: organic solvent or mixture, thermodynamic from solid; Ethanol, 50° C., 24 hours
Measure Name: solubility at 24 h

Provide one value: measured solubility at 24 h of `C[C@@H]1CN(Cc2ncccn2)C[C@H]1c1cn2c(C3CCOCC3)ncc2c(=O)[nH]1`
> 200 mg/mL

----------
- Test: Solubility assessment of MH1 in solvents (HPLC of liquors, XRPD of isolated solids)
- Type: physicochemical
- Condition Parameters: organic solvent or mixture, thermodynamic from solid; IPA:Heptane 1:2, 50° C.
- Description: Procedure: Four solvents were chosen based on the competitive slurry experiments that favored MH1 as well as for diversity. Combinations of those solvents with water (aw=0.35) were also utilized to verify which hydrate is favored. Mixtures of the solvents with heptane (1:1) were used to check for crystal form with a good antisolvent. MH1 (22×104 mg) was suspended in various solvents (11×0.5 ml) and stirred at either 5 or 50° C. for 24 hours at 750 rpm. […]
Measure Name: solubility at 24 h (mg/mL)
Give just the numeric value; mg/mL need not be written.

Input `C[C@@H]1CN(Cc2ncccn2)C[C@H]1c1cn2c(C3CCOCC3)ncc2c(=O)[nH]1` , output reported solubility at 24 h.
19

----------
- Test: Solubility assessment of MH1 in solvents (HPLC of liquors, XRPD of isolated solids)
- Type: physicochemical
- Condition Parameters: organic solvent or mixture, thermodynamic from solid; Ethanol:Heptane 1:1, 50° C., 24 hours
Measure Name: solubility at 24 h

Using known records, supply solubility at 24 h for C[C@@H]1CN(Cc2ncccn2)C[C@H]1c1cn2c(C3CCOCC3)ncc2c(=O)[nH]1 [MH1]
> 200 mg/mL
